# gametocyte viability annotations
System: Plasmodium falciparum NF54/iGP1_RE9H ulg8 stage V gametocytes
METHOD DESCRIPTION: gametocyte viability (luciferase signal relative to DMSO control) (% of DMSO control); higher = less gametocytocidal activity, active = 50 or less
CONDITION SET: concentration: 10 µM; exposure time: 72 h
Lab note: record just the number, no unit beside it.

Use the examples below as a reference point.
CNC(=O)c1cc(Oc2ccc(NC(=O)Nc3cc(C(C)(C)C)nn3-c3ccc4ncccc4c3)c(F)c2)ccn1 [DCC-2036 (Rebastinib)] = 107
O=C1NC(=O)/C(=C/c2ccc3c(c2)OC(F)(F)O3)S1 = 106
COc1cc(Nc2c(C#N)cnc3cc(OCCCN4CCN(C)CC4)c(OC)cc23)c(Cl)cc1Cl [Bosutinib (SKI-606)] = 98.1
O=c1ncn2nc(Sc3ccc(F)cc3F)ccc2c1-c1c(Cl)cccc1Cl = 103
NC(N)=NCCNS(=O)(=O)c1cccc2cnccc12 = 107

--- query ---
Quote gametocyte viability with test system Plasmodium falciparum NF54/iGP1_RE9H ulg8 stage V gametocytes for O=c1c(-c2ccc(O)cc2)coc2cc(O)ccc12 [Daidzein]
109

* * *

Tested on: Plasmodium falciparum NF54/iGP1_RE9H ulg8 stage V gametocytes
METHOD DESCRIPTION: gametocyte viability (luciferase signal relative to DMSO control) (% of DMSO control); higher = less gametocytocidal activity, active = 50 or less
CONDITION SET: concentration: 1 µM; exposure time: 72 h
Structures can show the parent of a compound that is named as a salt.
# gametocyte viability annotations
Lab note: record just the number, no unit beside it.

Use the examples below as a reference point.
CC(C)c1cnn2c(NCc3ccccc3)cc(NCCCCCCN)nc12 = 102
COc1ccc(S(=O)(=O)N(C(C)=O)c2ccccc2/C=C/c2cc[n+]([O-])cc2)cc1 = 98
N=C(N)NC(=N)NCCc1ccccc1 [Phenformin hydrochloride] = 99.9
Cc1nc(NC(=O)N2CCC[C@H]2C(N)=O)sc1-c1csc(C(C)(C)C)n1 = 101
CNC(=O)Nc1ccc(-c2nc(N3CC4CCC(C3)O4)c3cnn(C4CCC5(CC4)OCCO5)c3n2)cc1 = 103
N#C/C(=C\c1ccc(O)c(O)c1)C(=O)Nc1ccccc1 = 99.6
O=S(=O)(c1cccc2c(I)cccc12)N1CCCNCC1 = 102
Cn1cc(-c2ccc3nnc(Sc4ccc5ncccc5c4)n3n2)cn1 = 99.7

Using known records, supply gametocyte viability for CCOc1cc2ncc(C#N)c(Nc3ccc(OCc4ccccn4)c(Cl)c3)c2cc1NC(=O)/C=C/CN(C)C
103

Using known records, supply gametocyte viability for CC1CNCCN1S(=O)(=O)c1cccc2cnccc12 (configuration not stated)
97.5

Using known records, supply gametocyte viability for C[C@@H](Oc1cc(-n2cnc3ccc(CN4CCN(C)CC4)cc32)sc1C(N)=O)c1ccccc1C(F)(F)F
103

Using known records, supply gametocyte viability for O=C(NOCC(O)CO)c1cc(Br)c(F)c(F)c1Nc1ccc(I)cc1F (configuration not stated)
99.1

* * *

Test system: Plasmodium falciparum NF54/iGP1_RE9H ulg8 stage V gametocytes
METHOD DESCRIPTION: gametocyte viability (luciferase signal relative to DMSO control) (% of DMSO control); higher = less gametocytocidal activity, active = 50 or less
CONDITION SET: concentration: 10 µM; exposure time: 72 h
Structures can show the parent of a compound that is named as a salt.
PROPERTY MEASURED: gametocyte viability
Lab note: record just the number, no unit beside it.

Use the examples below as a reference point.
CCCCCOc1ccc(/C=C\c2cccc(O)c2C(=O)O)cc1 = 88.4
CC(=O)Nc1ccc(NC(=S)NC(=O)c2ccc(C(C)(C)C)cc2)cc1 = 81.9
CS(=O)(=O)c1ccc(-c2cnc(NCc3ccco3)n3cnnc23)cc1 = 91.4

--- query ---
Using known records, supply gametocyte viability for CC1CC/C(=N\Nc2nc(-c3ccc(Cl)cc3)cs2)C1 (centres undefined) [CPTH6 (hydrobromide)]
82.2

* * *

Tested on: Plasmodium falciparum NF54/iGP1_RE9H ulg8 stage V gametocytes
METHOD DESCRIPTION: gametocyte viability (luciferase signal relative to DMSO control) (% of DMSO control); higher = less gametocytocidal activity, active = 50 or less
CONDITION SET: concentration: 10 µM; exposure time: 72 h
# gametocyte viability annotations
Lab note: record just the number, no unit beside it.

Cc1cn(-c2cc(NC(=O)c3ccc(C)c(Nc4nccc(-c5cccnc5)n4)c3)cc(C(F)(F)F)c2)cn1 [Nilotinib (AMN-107)] = 107
CCS(=O)(=O)c1cccc(-c2cc(C(=O)NC3CCN(C)CC3)c(C)c3[nH]c4ncc(C)cc4c23)c1 = 84.2
COC(=O)Nc1ccc(-c2nc(N3CCOCC3)c3cnn(C4CCN(Cc5cccnc5)CC4)c3n2)cc1 = 117
COc1cc(OC)c(/C=C/S(=O)(=O)Cc2ccc(OC)c(NCC(=O)O)c2)c(OC)c1 = 101
CNC(=O)c1cc(Oc2ccc(NC(=O)Nc3ccc(Cl)c(C(F)(F)F)c3)c(F)c2)ccn1 [Regorafenib (BAY 73-4506)] = 99.1

Using known records, supply gametocyte viability for CC(C)(C)n1nc(-c2ccc(Cl)cc2)c2c(N)ncnc21
99.4

Using known records, supply gametocyte viability for O=c1cc(-c2ccc(O)cc2)oc2cc(O)cc(O)c12 [Apigenin]
65.3

Using known records, supply gametocyte viability for CC(C)(C)Cn1c(N)nc2ccc(-c3[nH]c(C(C)(C)C)nc3-c3ccc(F)cc3)nc21
105

Using known records, supply gametocyte viability for C=CC(=O)Nc1cc2c(Nc3ccc(F)c(Cl)c3)ncnc2cc1OCCCN1CCOCC1 [CI-1033 (Canertinib)]
100

Using known records, supply gametocyte viability for C#Cc1cccc(Nc2ncnc3cc(OC)c(OC)cc23)c1
96.4

Using known records, supply gametocyte viability for CC1(COc2ccc3c(c2)ncn3-c2ccc3cccc(N4CCC(N)CC4)c3n2)COC1
112

Using known records, supply gametocyte viability for N#CC(=Cc1ccc2[nH]ccc2c1)C(N)=C(C#N)C#N
104

Using known records, supply gametocyte viability for COc1cc(Nc2ncc3c(n2)-c2ccc(Cl)cc2C(c2c(F)cccc2OC)=NC3)ccc1C(=O)O [MLN8237 (Alisertib)]
94.6

Using known records, supply gametocyte viability for N#C/C(=C\c1ccc(O)c(O)c1)C(=O)Nc1ccccc1
104

Using known records, supply gametocyte viability for Cn1cc(-c2cnn3c(N)c(Br)c([C@@H]4CCCNC4)nc23)cn1
85.8

* * *

Test system: Plasmodium falciparum NF54/iGP1_RE9H ulg8 stage V gametocytes
METHOD DESCRIPTION: gametocyte viability (luciferase signal relative to DMSO control) (% of DMSO control); higher = less gametocytocidal activity, active = 50 or less
CONDITION SET: concentration: 10 µM; exposure time: 72 h
Structures can show the parent of a compound that is named as a salt.
PROPERTY MEASURED: gametocyte viability
Lab note: record just the number, no unit beside it.

Use the examples below as a reference point.
NCCNS(=O)(=O)c1cccc2cnccc12 = 107
Cn1c(=O)n(-c2ccc(C(C)(C)C#N)cc2)c2c3cc(-c4cnc5ccccc5c4)ccc3ncc21 = 104
O=C1NC(=O)/C(=C/c2ccc3nccc(-c4ccncc4)c3c2)S1 = 103

--- query ---
Using known records, supply gametocyte viability for Cc1ccc(NC(=O)c2ccc(CN3CCN(C)CC3)cc2)cc1Nc1nccc(-c2cccnc2)n1 [Imatinib Mesylate]
111

* * *

Test system: Plasmodium falciparum NF54/iGP1_RE9H ulg8 stage V gametocytes
METHOD DESCRIPTION: gametocyte viability (luciferase signal relative to DMSO control) (% of DMSO control); higher = less gametocytocidal activity, active = 50 or less
CONDITION SET: concentration: 10 µM; exposure time: 72 h
Structures can show the parent of a compound that is named as a salt.
PROPERTY MEASURED: gametocyte viability
Lab note: record just the number, no unit beside it.

Use the examples below as a reference point.
Cc1cnc(Nc2ccc(N3CCN(C)CC3)cc2)nc1Nc1cccc(S(=O)(=O)NC(C)(C)C)c1 = 66.6
C#Cc1cccc(Nc2ncnc3cc(OCCOC)c(OCCO)cc23)c1 = 97
O=S(=O)(c1cccc2c(I)cccc12)N1CCCNCC1 = 94.1
OCCn1cc(-c2cnc3nnn(Cc4ccc5ncccc5c4)c3n2)cn1 = 98.6

Using known records, supply gametocyte viability for NC1(c2ccc(-c3nc4ccn5c(=O)[nH]nc5c4cc3-c3ccccc3)cc2)CCC1 [MK-2206 dihydrochloride]
63.9

Using known records, supply gametocyte viability for Nc1ncnc2c1c(I)cn2[C@@H]1O[C@H](CO)[C@@H](O)[C@H]1O
113
